experimental.system: Acetylcholinesterase (Torpedo californica)
Sequence (P04058 whole entry): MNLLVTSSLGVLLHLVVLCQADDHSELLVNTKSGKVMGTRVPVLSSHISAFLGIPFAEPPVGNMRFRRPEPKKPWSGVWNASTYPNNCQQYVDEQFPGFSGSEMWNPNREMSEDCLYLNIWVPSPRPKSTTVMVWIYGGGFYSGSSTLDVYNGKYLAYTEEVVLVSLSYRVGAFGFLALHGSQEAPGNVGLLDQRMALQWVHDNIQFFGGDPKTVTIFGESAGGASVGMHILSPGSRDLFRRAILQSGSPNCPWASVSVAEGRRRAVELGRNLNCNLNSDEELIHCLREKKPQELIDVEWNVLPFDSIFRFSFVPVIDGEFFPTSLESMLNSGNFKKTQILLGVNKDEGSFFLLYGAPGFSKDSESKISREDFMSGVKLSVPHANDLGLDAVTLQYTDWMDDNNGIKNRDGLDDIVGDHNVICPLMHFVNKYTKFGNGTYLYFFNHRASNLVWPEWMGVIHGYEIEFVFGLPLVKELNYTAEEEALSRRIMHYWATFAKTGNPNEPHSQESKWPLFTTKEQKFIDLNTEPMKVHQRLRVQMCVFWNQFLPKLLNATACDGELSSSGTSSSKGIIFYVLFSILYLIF
pIC50: −log10 of the molar value.
# binarize pIC50: threshold 5 inclusive, high side Condition met, low side Condition not met

# chemical.structure, experimental.system, label
rows = [
    ("O=C(/C=C/c1ccc[n+](Cc2ccc([N+](=O)[O-])cc2)c1)c1cc2ccccc2o1", "Acetylcholinesterase (Torpedo californica)", "Condition not met"),
    ("O=C(/C=C/c1cc[n+](Cc2ccccc2)cc1)c1cc2cc(Br)ccc2o1", "Acetylcholinesterase (Torpedo californica)", "Condition met"),
    ("O=C(/C=C/c1ccc[n+](Cc2ccc(Br)cc2)c1)c1cc2cc(Br)ccc2o1", "Acetylcholinesterase (Torpedo californica)", "Condition not met"),
    ("O=C(/C=C/c1ccc[n+](Cc2ccccc2)c1)c1cc2cc(Br)ccc2o1", "Acetylcholinesterase (Torpedo californica)", "Condition met"),
]
